- study.system: T1, PcrV (aa136-257).6xhis (Pseudomonas aeruginosa)
- T1 chain: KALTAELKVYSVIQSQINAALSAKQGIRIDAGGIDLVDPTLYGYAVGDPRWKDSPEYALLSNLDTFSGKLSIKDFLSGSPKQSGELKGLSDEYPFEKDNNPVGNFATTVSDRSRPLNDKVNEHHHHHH
- assay.overview: SPR (Biacore T200), mAb captured via anti-human Fc, PcrV injected, 25 C
Provide the recorded kon for the entries that follow.
Numbers only, in M⁻¹ s⁻¹.

H1H29332P (antibody, V domains shown) VH: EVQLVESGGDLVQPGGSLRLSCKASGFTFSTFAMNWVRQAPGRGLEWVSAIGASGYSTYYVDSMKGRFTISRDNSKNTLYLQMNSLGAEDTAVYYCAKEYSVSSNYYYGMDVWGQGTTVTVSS VL: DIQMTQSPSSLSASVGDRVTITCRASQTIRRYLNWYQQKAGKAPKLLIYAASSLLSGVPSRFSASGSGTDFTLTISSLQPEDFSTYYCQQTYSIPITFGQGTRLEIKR : 133000

## Task Which measured kon value corresponds to H1H29336P (antibody, V domains shown) VH: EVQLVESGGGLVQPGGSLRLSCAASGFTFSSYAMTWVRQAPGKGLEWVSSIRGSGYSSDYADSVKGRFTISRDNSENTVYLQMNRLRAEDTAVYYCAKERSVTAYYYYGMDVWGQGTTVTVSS VL: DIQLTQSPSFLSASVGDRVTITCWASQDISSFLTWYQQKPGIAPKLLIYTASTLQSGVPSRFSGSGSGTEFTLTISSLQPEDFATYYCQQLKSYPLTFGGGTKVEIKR ?
## Result 367000
